Origin of the recorded values: ChEMBL document CHEMBL3228033

List of IC50 values.
# experimental-target: Indolethylamine N-methyltransferase (Oryctolagus cuniculus)
# assay-notes: Inhibition of New Zealand white rabbit lung INMT using N-methyltryptamine as substrate after 60 to 90 mins by liquid scintillation counting in presence of S-methyl-[14C]adenosylmethionine

Recorded results for 3 compounds are shown here.
Cn1cccc/c1=N\CC(F)(F)F : > 9.2 µM
c1ccc(C2CC3=NCCN3C2)cc1 (stereo unspecified) : > 330 µM
N=C1SCCN1Cc1ccncc1 : > 6.9 µM

// query Query: IC50; subject: c1ccc(C2(c3ccccc3)CC3=NCCN3C2)cc1
// result > 330 µM

// query Try this compound too: N#CCn1ccc(=N)cc1
// result > 148 µM

// query Try the compound C1CN2C(=N1)C1CC3CC(C1)CC2C3
// result > 330 µM

---

# experimental-target: Indolethylamine N-methyltransferase (Oryctolagus cuniculus)
# assay-notes: Inhibition of New Zealand white rabbit lung INMT using N-methyltryptamine as substrate after 60 to 90 mins by liquid scintillation counting in presence of S-methyl-[14C]adenosylmethionine
reported-property: IC50

CCOc1cccc(=N)n1C : > 10.3 µM

Shift focus to the following entry.
// query Which IC50 is listed for c1ccc2c(c1)SCC1=NCCN12 ?
// result > 330 µM

---

In this section, each of the molecules is paired with its reported pIC50.
# experimental-target: Indolethylamine N-methyltransferase (Oryctolagus cuniculus, UniProt O97972)
# Sequence (O97972 whole entry): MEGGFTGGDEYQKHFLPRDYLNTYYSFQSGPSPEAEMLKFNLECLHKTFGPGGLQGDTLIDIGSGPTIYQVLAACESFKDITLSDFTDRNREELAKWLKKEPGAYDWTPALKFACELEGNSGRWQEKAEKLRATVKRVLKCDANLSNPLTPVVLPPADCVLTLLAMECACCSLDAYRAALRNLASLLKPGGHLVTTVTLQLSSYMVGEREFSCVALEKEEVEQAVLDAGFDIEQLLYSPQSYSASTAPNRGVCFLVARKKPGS
# assay-notes: Inhibition of New Zealand white rabbit lung INMT using N-methyltryptamine as substrate after 60 to 90 mins by liquid scintillation counting in presence of S-methyl-[14C]adenosylmethionine
pIC50: −log10 of the molar value.

Here is how some molecules turned out for pIC50.
C[n+]1ccccc1CC#N : < 4.93
Cn1cccc/c1=N\CCO : < 5.05

Below: the item to evaluate.
// query May I ask what pIC50 has been recorded for Cn1ccncc1=N ?
// result < 2.28
